Where do these numbers come from? They come from patent US5840918A.

target: FTase (Bos taurus, UniProt P29702+P49355); construct: bovine brain by inference from the cited Moores et al. 1991; assay: Inhibition of FTase-mediated prenylation (in vitro prenylation assay); conditions: Table 1; partially purified FTase, 3 μM recombinant H-ras, 440 nM [3H]FPP, 15 min 37° C
Reported metric: pIC50
Entry type: numeric. Quantity: pIC50, the -log10 of concentration in molar units.

Would you mind telling me what pIC50 value was observed for COC(=O)[C@H](CCS(C)(=O)=O)NC(=O)c1cc(CCC[C@@H](N)CS)ccc1-c1ccsc1 [PM032] ?
7.03

Would you mind telling me what pIC50 value was observed for CSCC[C@H](NC(=O)C(/C=C/[C@@H](/C=C/C(N)CS)Cc1ccccc1)C(C)C)C(=O)O (some centres unmarked) [PD391] ?
7.54

Would you mind telling me what pIC50 value was observed for CS(=O)(=O)CC[C@H](NC(=O)c1cc(C/C=C/C(N)CS)ccc1-c1ccccc1)C(=O)O (some centres unmarked) [PM161] ?
9.05

Would you mind telling me what pIC50 value was observed for CSCCC(NC(=O)C(/C=C\[C@@H](/C=C/C(N)CS)C(C)C)C(C)C)C(=O)O (some centres unmarked) [PD122] ?
8.52

Would you mind telling me what pIC50 value was observed for CSCC[C@H](NC(=O)C(/C=C/[C@@H](/C=C/C(N)CS)C(C)C)C(C)C)C(N)=O (some centres unmarked) [PD042] ?
8.30

Would you mind telling me what pIC50 value was observed for CC(C)[C@H](/C=C/C(N)CS)CN(C)C(Cc1cccs1)C(=O)N[C@@H](CCS(C)(=O)=O)C(=O)O (some centres unmarked) [PA121] ?
7.82

Would you mind telling me what pIC50 value was observed for CSCC[C@H](NC(=O)C(/C=C/[C@H](C)/C=C/C(N)CS)Cc1ccccc1)C(=O)O (some centres unmarked) [PD441] ?
7.59

Would you mind telling me what pIC50 value was observed for CSCC[C@H](NCc1cc(C/C=C/C(N)CS)ccc1-c1ccccc1)C(=O)O (some centres unmarked) [PM121] ?
7.66

###

biological target: FTase (Bos taurus, UniProt P29702+P49355); construct: bovine brain by inference from the cited Moores et al. 1991; experiment: Inhibition of FTase-mediated prenylation (in vitro prenylation assay); type: biochemical; conditions: Table 1; partially purified FTase, 3 μM recombinant H-ras, 440 nM [3H]FPP, 15 min 37° C
Reported metric: IC50

For FTase (Bos taurus, UniProt P29702+P49355), provide IC50 of C[C@H](/C=C/C(N)CS)/C=C/C(Cc1ccccc1)C(=O)N[C@@H](CCC(N)=O)C(=O)O (stereo partly drawn) [PD062] please.
0.2 µM

For FTase (Bos taurus, UniProt P29702+P49355), provide IC50 of NC(/C=C/Cc1ccc(-c2ccccc2)c(C(=O)N[C@@H](Cc2ccccc2)C(=O)O)c1)CS (stereo partly drawn) [PM172] please.
0.056 µM

For FTase (Bos taurus, UniProt P29702+P49355), provide IC50 of CCc1ccc(C/C=C/C(N)CS)cc1C(=O)N[C@@H](CCSC)C(=O)O (stereo partly drawn) [PM062] please.
0.009 µM

###

test system: T24; test: Inhibition of anchorage-independent tumor cell growth, T24; type: cell-based; settings: Homo sapiens, T-24, 336 h; T24, 14 days, soft agar
Reported metric: pIC50
Entry type: numeric. Quantity: pIC50, the -log10 of concentration in molar units.

Would you mind telling me what pIC50 value was observed for CSCC[C@H](NC(=O)C(/C=C\[C@@H](/C=C/[C@@H](N)CS)C(C)C)Cc1ccccc1)C(=O)O (stereo partly shown) ?
6.52
